System: 435261-313-R-J1-PDC complex spheroid viability
Experiment: Anticancer human tumor 435261-313-R-J1-PDC patient-derived colon adenocarcinoma cell line growth inhibition [GQUAD]
Conditions: second compound 0.0316 µM; first compound 0.00316 µM; hits give low values
Each entry below lists one item and its recorded viability, T/C value.

molecule	assayed_target	viability, T/C, %
CC[C@@]1(O)C(=O)OCc2c1cc1n(c2=O)Cc2cc3c(CN(C)C)c(O)ccc3nc2-1 + CN(C)c1ccc(Nc2c3ccc(NC(=O)CCN4CCCC4)cc3nc3cc(NC(=O)CCN4CCCC4)ccc23)cc1	435261-313-R-J1-PDC complex spheroid viability	96.6
CCc1c2c(nc3ccc(O)cc13)-c1cc3c(c(=O)n1C2)COC(=O)[C@]3(O)CC + Cc1[nH]c2ccc(F)cc2c1-c1nc2c3cccnc3c3ncccc3c2[nH]1	435261-313-R-J1-PDC complex spheroid viability	62.1
CC[C@@]1(O)C(=O)OCc2c1cc1n(c2=O)Cc2cc3c(CN(C)C)c(O)ccc3nc2-1 + Cc1[nH]c2ccc(F)cc2c1-c1nc2c3cccnc3c3ncccc3c2[nH]1	435261-313-R-J1-PDC complex spheroid viability	76.8
Cc1[nH]c2ccccc2c1CCNCc1ccc(/C=C/C(=O)NO)cc1 + Cc1[nH]c2ccc(F)cc2c1-c1nc2c3cccnc3c3ncccc3c2[nH]1	435261-313-R-J1-PDC complex spheroid viability	70.3

====

Tested on: 435261-313-R-J1-PDC complex spheroid viability
Assay: Anticancer human tumor 435261-313-R-J1-PDC cell line growth inhibition [GQUAD]
Settings: second compound 0.0316 µM; first compound 0.316 µM; hits give low values
Text: DNA G-quadruplex Stabilizer Agents in Combinations in Complex Spheroids A high-throughput screen of multi-cell type tumor spheroids was designed to identify active combinations of DNA G-quadruplex stabilizer agents and targeted small molecules. […] Compounds. […] If the clinical Cmax for an agent had not been determined, the highest concentration tested was 10 microM. […]
Known viability, T/C of a selection of molecules
parameter_measured: viability, T/C (%)

molecule	parameter_measured	numeric_value
Nc1ccn(C2OC(CO)C(O)C2(F)F)c(=O)n1 (stereo not drawn) + CN(C)c1ccc(Nc2c3ccc(NC(=O)CCN4CCCC4)cc3nc3cc(NC(=O)CCN4CCCC4)ccc23)cc1	viability, T/C	90
CC[C@@]1(O)C(=O)OCc2c1cc1n(c2=O)Cc2cc3c(CN(C)C)c(O)ccc3nc2-1 + Cc1[nH]c2ccc(F)cc2c1-c1nc2c3cccnc3c3ncccc3c2[nH]1	viability, T/C	69
C#Cc1c(F)ccc2cc(O)cc(-c3ncc4c(N5CC6CCC(C5)N6)nc(OCC56CCCN5CC(F)C6)nc4c3F)c12 (stereo not drawn) + Cc1cnc(CNC(=O)c2c(=O)c3ccc(N4CCCN(C)CC4)nc3n3c2sc2ccccc23)cn1	viability, T/C	71.5

====

Test system: 435261-313-R-J1-PDC complex spheroid viability
Assay: Anticancer human tumor 435261-313-R-J1-PDC cell line growth inhibition [GQUAD]; active = viability on the fitted dose curve at most 10% of control; inactive = the rest
Conditions: second compound 10 µM; first compound 0.316 µM
Possible outcomes: active, inactive

molecule	classification
COc1ncnc(C2CC2)c1-c1ncc2cnn(Cc3ccc(-c4nc(C(F)(F)F)cn4C(C)C)cc3)c2n1 + CN(C)c1ccc(Nc2c3ccc(NC(=O)CCN4CCCC4)cc3nc3cc(NC(=O)CCN4CCCC4)ccc23)cc1	inactive
COc1ncnc(C2CC2)c1-c1ncc2cnn(Cc3ccc(-c4nc(C(F)(F)F)cn4C(C)C)cc3)c2n1 + Cc1cnc(CNC(=O)c2c(=O)c3ccc(N4CCCN(C)CC4)nc3n3c2sc2ccccc23)cn1	active
CCCS(=O)(=O)Nc1ccc(F)c(C(=O)c2c[nH]c3ncc(-c4ccc(Cl)cc4)cc23)c1F + Cc1[nH]c2ccc(F)cc2c1-c1nc2c3cccnc3c3ncccc3c2[nH]1	inactive
CC1COCCN1c1cc(C2(S(C)(=N)=O)CC2)nc(-c2ccnc3[nH]ccc23)n1 (stereo not drawn) + Cc1cnc(CNC(=O)c2c(=O)c3ccc(N4CCCN(C)CC4)nc3n3c2sc2ccccc23)cn1	active
CC(C)(O)C1CCC(Nc2ccc3ncc(-c4cccc(C(F)(F)F)c4)n3n2)CC1 (stereo not drawn) + Cc1[nH]c2ccc(F)cc2c1-c1nc2c3cccnc3c3ncccc3c2[nH]1	inactive
Cc1cccc(N(C)C(=O)C2C(O)CCN2c2nc(C)cc(C(F)(F)F)c2C#N)c1 (stereo not drawn) + Cc1[nH]c2ccc(F)cc2c1-c1nc2c3cccnc3c3ncccc3c2[nH]1	inactive
CC1COCCN1c1cc(-c2ccnn2C)c2ccnc(-c3ccn[nH]3)c2n1 (stereo not drawn) + Cc1cnc(CNC(=O)c2c(=O)c3ccc(N4CCCN(C)CC4)nc3n3c2sc2ccccc23)cn1	active
COc1cccc2c1C(=O)c1c(O)c3c(c(O)c1C2=O)CC(O)(C(=O)CO)CC3OC1CC(N)C(O)C(C)O1 (stereo not drawn) + Cc1cnc(CNC(=O)c2c(=O)c3ccc(N4CCCN(C)CC4)nc3n3c2sc2ccccc23)cn1	active

====

Test system: 435261-313-R-J1-PDC complex spheroid viability
Test: Anticancer human tumor 435261-313-R-J1-PDC cell line growth inhibition [GQUAD];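 also: spheroids exposed to the agents for seven days before readout; percent of vehicle control viability with DMSO wells as 100%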
Conditions: second compound 1 µM; first compound 0.00316 µM; hits give low values

compound	assayed_target	unit_spec	viability, T/C
Cn1ncnc1[C@H]1c2n[nH]c(=O)c3cc(F)cc(c23)N[C@@H]1c1ccc(F)cc1 + CN(C)c1ccc(Nc2c3ccc(NC(=O)CCN4CCCC4)cc3nc3cc(NC(=O)CCN4CCCC4)ccc23)cc1	435261-313-R-J1-PDC complex spheroid viability	%	92.1
CCc1c2c(nc3ccc(O)cc13)-c1cc3c(c(=O)n1C2)COC(=O)[C@]3(O)CC + CN(C)c1ccc(Nc2c3ccc(NC(=O)CCN4CCCC4)cc3nc3cc(NC(=O)CCN4CCCC4)ccc23)cc1	435261-313-R-J1-PDC complex spheroid viability	%	81.2
CC[C@@]1(O)C(=O)OCc2c1cc1n(c2=O)Cc2cc3c(CN(C)C)c(O)ccc3nc2-1 + Cc1[nH]c2ccc(F)cc2c1-c1nc2c3cccnc3c3ncccc3c2[nH]1	435261-313-R-J1-PDC complex spheroid viability	%	67.6

====

System: 435261-313-R-J1-PDC complex spheroid viability
Test: Anticancer human tumor 435261-313-R-J1-PDC cell line growth inhibition [GQUAD];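 also: spheroids exposed to the agents for seven days before readout; percent of vehicle control viability with DMSO wells as 100%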
Details: second compound 3.16 µM; first compound 0.0316 µM; hits give low values
List of viability, T/C values.
parameter_measured: viability, T/C (%)

compound	unit_spec	numeric_value
CCCS(=O)(=O)Nc1ccc(F)c(C(=O)c2c[nH]c3ncc(-c4ccc(Cl)cc4)cc23)c1F + CN(C)c1ccc(Nc2c3ccc(NC(=O)CCN4CCCC4)cc3nc3cc(NC(=O)CCN4CCCC4)ccc23)cc1	%	82
Cc1[nH]c2ccccc2c1CCNCc1ccc(/C=C/C(=O)NO)cc1 + CN(C)c1ccc(Nc2c3ccc(NC(=O)CCN4CCCC4)cc3nc3cc(NC(=O)CCN4CCCC4)ccc23)cc1	%	56.2
CC[C@@]1(O)C(=O)OCc2c1cc1n(c2=O)Cc2cc3c(CN(C)C)c(O)ccc3nc2-1 + CN(C)c1ccc(Nc2c3ccc(NC(=O)CCN4CCCC4)cc3nc3cc(NC(=O)CCN4CCCC4)ccc23)cc1	%	63.4

====

Test system: 435261-313-R-J1-PDC complex spheroid viability
Assay: Anticancer human tumor 435261-313-R-J1-PDC cell line growth inhibition [GQUAD];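 also: spheroids exposed to the agents for seven days before readout; percent of vehicle control viability with DMSO wells as 100%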
Settings: second compound 1 µM; first compound 0.1 µM; hits give low values
parameter_measured: viability, T/C

compound	parameter_measured	result
COc1cccc2c1C(=O)c1c(O)c3c(c(O)c1C2=O)CC(O)(C(=O)CO)CC3OC1CC(N)C(O)C(C)O1 (stereo not drawn) + CN(C)c1ccc(Nc2c3ccc(NC(=O)CCN4CCCC4)cc3nc3cc(NC(=O)CCN4CCCC4)ccc23)cc1	viability, T/C	69.8%
C#Cc1c(F)ccc2cc(O)cc(-c3ncc4c(N5CC6CCC(C5)N6)nc(OCC56CCCN5CC(F)C6)nc4c3F)c12 (stereo not drawn) + CN(C)c1ccc(Nc2c3ccc(NC(=O)CCN4CCCC4)cc3nc3cc(NC(=O)CCN4CCCC4)ccc23)cc1	viability, T/C	87.9%
O=C(c1cc(Cc2n[nH]c(=O)c3ccccc23)ccc1F)N1CCN(C(=O)C2CC2)CC1 + CN(C)c1ccc(Nc2c3ccc(NC(=O)CCN4CCCC4)cc3nc3cc(NC(=O)CCN4CCCC4)ccc23)cc1	viability, T/C	78%

====

System: 435261-313-R-J1-PDC complex spheroid viability
Assay: Anticancer human tumor 435261-313-R-J1-PDC cell line growth inhibition [GQUAD];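 also: spheroids exposed to the agents for seven days before readout; percent of vehicle control viability with DMSO wells as 100%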
Conditions: second compound 10 µM; first compound 0.316 µM; hits give low values
Quick reference for viability, T/C among some molecules
parameter_measured: viability, T/C (%)

molecule	unit_spec	numeric_value
Cc1[nH]c2ccccc2c1CCNCc1ccc(/C=C/C(=O)NO)cc1 + CN(C)c1ccc(Nc2c3ccc(NC(=O)CCN4CCCC4)cc3nc3cc(NC(=O)CCN4CCCC4)ccc23)cc1	%	4.75
COc1cccc2c1C(=O)c1c(O)c3c(c(O)c1C2=O)CC(O)(C(=O)CO)CC3OC1CC(N)C(O)C(C)O1 (stereo not drawn) + CN(C)c1ccc(Nc2c3ccc(NC(=O)CCN4CCCC4)cc3nc3cc(NC(=O)CCN4CCCC4)ccc23)cc1	%	17.7
O=c1[nH]cc(F)c(=O)[nH]1 + Cc1cnc(CNC(=O)c2c(=O)c3ccc(N4CCCN(C)CC4)nc3n3c2sc2ccccc23)cn1	%	0.23
